Test: Renal clearance: recovery of dye in urine samples
Format: in vivo
Conditions: human; healthy individuals; predetermined dose of 0.5 mg; urine over 12 h; read-out: recovery of the pre-determined dose in urine

>  <compound_structure_string>
CC1(C)C(/C=C/C2=C(Oc3ccc(CCC(=O)[O-])cc3)C(=C/C=C3/N(CCC[N+](C)(C)C)c4ccc(S(=O)(=O)[O-])cc4C3(C)C)/CCC2)=[N+](CCC[N+](C)(C)C)c2ccc(S(=O)(=O)[O-])cc21

>  <dose excreted>
> 80%

$$$$

----------
Assay: in vivo
Conditions: pig, iv

>  <compound>
CC1(C)C(/C=C/C2=C(Oc3ccc(CCC(=O)[O-])cc3)C(=C/C=C3/N(CCC[N+](C)(C)C)c4ccc(S(=O)(=O)[O-])cc4C3(C)C)/CCC2)=[N+](CCC[N+](C)(C)C)c2ccc(S(=O)(=O)[O-])cc21 [MM-19]

>  <unit_text>
min

>  <half-life>
13.4

$$$$

----------
Assay: Renal clearance: recovery of dye in urine samples
Format: in vivo
Details: human; healthy individuals; dose not named in the sentence (groups 0.5, 2.5, 5.0 mg); urine over 12 h; read-out: recovery of the pre-determined dose in urine
reported_property: dose excreted

>  <compound_structure_string>
CC1(C)C(/C=C/C2=C(Oc3ccc(CCC(=O)[O-])cc3)C(=C/C=C3/N(CCC[N+](C)(C)C)c4ccc(S(=O)(=O)[O-])cc4C3(C)C)/CCC2)=[N+](CCC[N+](C)(C)C)c2ccc(S(=O)(=O)[O-])cc21

>  <observed_measurement>
> 50%

$$$$
